Target: T1, human MerTK (human, UniProt Q12866 26-499)
T1 construct: also called HuMER
T1 sequence: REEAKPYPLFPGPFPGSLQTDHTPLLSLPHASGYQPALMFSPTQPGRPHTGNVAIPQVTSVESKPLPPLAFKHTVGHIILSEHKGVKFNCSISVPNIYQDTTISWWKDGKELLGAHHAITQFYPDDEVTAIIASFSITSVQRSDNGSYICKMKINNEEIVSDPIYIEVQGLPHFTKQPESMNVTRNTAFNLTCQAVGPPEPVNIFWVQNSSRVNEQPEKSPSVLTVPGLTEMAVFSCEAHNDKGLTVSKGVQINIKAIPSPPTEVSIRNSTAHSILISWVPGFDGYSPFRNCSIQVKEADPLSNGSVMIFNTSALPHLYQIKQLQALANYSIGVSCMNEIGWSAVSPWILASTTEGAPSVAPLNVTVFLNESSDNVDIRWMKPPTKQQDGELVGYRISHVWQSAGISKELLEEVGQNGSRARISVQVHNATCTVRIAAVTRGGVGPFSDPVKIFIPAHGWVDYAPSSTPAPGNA
Test: SPR BIAcore T200, Ab captured, 37C
pKd: −log10 of the molar value.
assay metric: pKd

* h13B4.V1 HC Q2V (antibody, human IgG1, name in Kabat numbering, V domains shown, Framework variant of h13B4.v1 (human IgG1)) VH: EVQLVESGEGLVQPGGSLRLSCAVSGFSLSSYAMGWVRQAPGKGLEWIGIINSYGNTYYANWAKGRFTISRDSSKNTVYLQMGSLRAEDMAVYFCARDPGVSSNLWGPGTLVTVSS VL: DVQMTQSPSTLSASVGDRVTITCQASQNIYSGLAWYQQKPGKPPKLLIYGASKLASGVPSRFSGSGSGTEFTLTISSLQPDDFATYYCQATYYSSNSVAFGGGTKVEIK | 8.35
* h9E3.FN.V1 HC V24A (antibody, human IgG1, name in Kabat numbering, V domains shown, Framework variant of h9E3.FN.v1 (human IgG1)) VH: EQQLVESGGGLIQPGGSLRLSCAASGFSLSSNAMSWVRQAPGKGLEWIGIISSSGSTYSASWAKGRFTISKDSSKNTMYLQMNSLRAEDTAVYFCARVGFFVGYGAYDYGIIHRLDLWGQGTLVTVSS VL: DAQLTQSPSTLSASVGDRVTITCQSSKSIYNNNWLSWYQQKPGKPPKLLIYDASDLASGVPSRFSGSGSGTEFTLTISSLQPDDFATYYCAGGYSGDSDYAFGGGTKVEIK | 8.06
* h13B4.V1 HC S73N (antibody, human IgG1, name in Kabat numbering, V domains shown, Framework variant of h13B4.v1 (human IgG1)) VH: EQQLVESGEGLVQPGGSLRLSCAVSGFSLSSYAMGWVRQAPGKGLEWIGIINSYGNTYYANWAKGRFTISRDNSKNTVYLQMGSLRAEDMAVYFCARDPGVSSNLWGPGTLVTVSS VL: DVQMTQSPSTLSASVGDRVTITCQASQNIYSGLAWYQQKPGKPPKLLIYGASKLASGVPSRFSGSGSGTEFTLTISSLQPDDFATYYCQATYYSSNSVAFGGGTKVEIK | 8.33
